B1: HDV Ribozyme (parent)
chain: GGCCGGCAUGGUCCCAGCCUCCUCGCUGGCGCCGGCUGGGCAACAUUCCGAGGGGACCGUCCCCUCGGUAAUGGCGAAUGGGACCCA

- Variants of: B1
- experiment summary: self-cleavage, relative activity (ratio to wild type); higher = more cleavage; co-transcriptional
I'd be grateful if you could share measured self-cleavage for these entries.
Answer with a number only.

Q: Report self-cleavage, nothing else, for this variant: GGCCGGCAUGGUCCCAGCCUCCUCGCUGGCGCCGGCUGGGCAACAUACCGAGGGGACCGUCCCCUCUGUAAUGGCGAAUGGGACCCA [U47A G67U]
A: 1.14

Q: Report self-cleavage, nothing else, for this variant: GGCCGGCAUGGUCCCAGCCUCCUCGCUGGCGCCGGCUGGGCAAGAUUCCGAGGGGACCGUCCCCUCGGUACUGGCGAAUGGGACCCA [C44G A71C]
A: 0.76

Q: Report self-cleavage, nothing else, for this variant: GGCCGGCAUGAUCCCAGCCUCCUCGCUGGCGCCGGCUGGGCAACAUUCCGAGGGGACCGUCCCCUCGGUAAUGGCGAAUGGGAACCA [G11A C84A]
A: 0.787

Q: Report self-cleavage, nothing else, for this variant: GGCCGGCAUGGUCCCAGCCUCCUCGCUGGCGCCGGCUGGGCAACAUUCGGAGAGGACCGUCCCCUCGGUAAUGGCGAAUGGGACCCA [C49G G53A]
A: 0.475

Q: Report self-cleavage, nothing else, for this variant: GGCCGGCAUGGUCCCAGCCUCCUCGAUGGCGCCGGCUAGGCAACAUUCCGAGGGGACCGUCCCCUCGGUAAUGGCGAAUGGGACCCA [C26A G38A]
A: 0.153

Q: Report self-cleavage, nothing else, for this variant: GGCCGGCAUGGUCCCAGCCUCCUCGCUGGCGCCGGCUGGGCAACAUUCCGAGGGGCCCGUCCCCUCGGUAAUCGCGAAUGGGACCCA [A56C G73C]
A: 0.536

Q: Report self-cleavage, nothing else, for this variant: GGCCGGGAUGGUCCCAGCCUCCUCGCUGGCGCCGGCUGGGAAACAUUCCGAGGGGACCGUCCCCUCGGUAAUGGCGAAUGGGACCCA [C7G C41A]
A: 0

Q: Report self-cleavage, nothing else, for this variant: GGCCGGCAUGGUCCCAGCCUCCUCGCUGGCGCCGGCUGGGCAACCUUCCGAGGGGACCGUCCCCUCGGUAAUCGCGAAUGGGACCCA [A45C G73C]
A: 0.424

Q: Report self-cleavage, nothing else, for this variant: GGCCGGCAUGGUCCCAGCCUCCUCCCUGGCGCCGGCUGGGCAACAUUCCGAGGGGACAGUCCCCUCGGUAAUGGCGAAUGGGACCCA [G25C C58A]
A: 0.104

Q: Report self-cleavage, nothing else, for this variant: GGCCGGCAUGGUCGCAGCCUCCUCGCUGGCGCUGGCUGGGCAACAUUCCGAGGGGACCGUCCCCUCGGUAAUGGCGAAUGGGACCCA [C14G C33U]
A: 0.32

Q: Report self-cleavage, nothing else, for this variant: GGCCGGCAUGGUCCCAGCCUCCUCGCUGGCGCCGUCUGGGCAACAUUCCGAGGGGACCGCCCCCUCGGUAAUGGCGAAUGGGACCCA [G35U U60C]
A: 0.317

Q: Report self-cleavage, nothing else, for this variant: GGCCGGCAUGGUCCCAGCCUCUUCGCUGCCGCCGGCUGGGCAACAUUCCGAGGGGACCGUCCCCUCGGUAAUGGCGAAUGGGACCCA [C22U G29C]
A: 0.0405

Q: Report self-cleavage, nothing else, for this variant: GGCCGGCAUGGUCCCAGCCUCCUCGCUGGCGCCGGCUGGGCAGAAUUCCGAGGGGACCGUCCCCUCGGUAAUGGCGAAUGGGACCCA [A43G C44A]
A: 0.684

Q: Report self-cleavage, nothing else, for this variant: GGCCGGCAUGGUCCCAGGCUCCUCACUGGCGCCGGCUGGGCAACAUUCCGAGGGGACCGUCCCCUCGGUAAUGGCGAAUGGGACCCA [C18G G25A]
A: 0.0504

Q: Report self-cleavage, nothing else, for this variant: GGCCGGCAUGGUCCCAGCCUCCUCGCUGGCGCCGGCUGGGCAACAUUCCGAGGGGACCGUCCCCUCGUUAAUGGCGAAUGGGACCCU [G68U A87U]
A: 1

Q: Report self-cleavage, nothing else, for this variant: GGCCGGCAUGGUCCCAGACUCCUCGCUGGCGCCGGCUGGGCAACAUUCCGAGGGGACCGUCCCCUCGAUAAUGGCGAAUGGGACCCA [C18A G68A]
A: 0.237

Q: Report self-cleavage, nothing else, for this variant: GGCCCGCAUGGUCCCAGCCACCUCGCUGGCGCCGGCUGGGCAACAUUCCGAGGGGACCGUCCCCUCGGUAAUGGCGAAUGGGACCCA [G5C U20A]
A: 0

Q: Report self-cleavage, nothing else, for this variant: GGCCGGCAUGGUCCCAGCUUCCUCGCUGGCGCCGGCUGGGCAACAUUCCGAGGGGACCGUGCCCUCGGUAAUGGCGAAUGGGACCCA [C19U C61G]
A: 0.176

Q: Report self-cleavage, nothing else, for this variant: GGCCGGCAUGGUCCCAGCCUCCGCGCUGGCGCCGGCUGGGCAACAUUCCGAGAGGACCGUCCCCUCGGUAAUGGCGAAUGGGACCCA [U23G G53A]
A: 0.306

Q: Report self-cleavage, nothing else, for this variant: GGCCGGCAUGGUCCCAGCCUCCUCGCUGGCGCCGGCUGGGCAAGAUUCCGAGGGGACCGUCCCCUCGGUAAUGGCGAACGGGACCCA [C44G U79C]
A: 0.297

Q: Report self-cleavage, nothing else, for this variant: GGCGGGCAUGGUCCCAGCCUCCUCGCUGGCGCCGCCUGGGCAACAUUCCGAGGGGACCGUCCCCUCGGUAAUGGCGAAUGGGACCCA [C4G G35C]
A: 0.13

Q: Report self-cleavage, nothing else, for this variant: GGCCGGCAUGGUCCCAGCCUCCUCGCUGGCGCCGGCUGGGCAACACUCCGAGGGGACCGUCCCCUCGGUAAUCGCGAAUGGGACCCA [U46C G73C]
A: 0.525

Q: Report self-cleavage, nothing else, for this variant: GGCCGGCAUGGUCCCAGCCUCCUCGCUGGCGCCGGCUGGGCAACAUUCCGAGGGGACCGUCCCCUCGGUAAUGGCGAAUGGGACAGA [C85A C86G]
A: 0.791

Q: Report self-cleavage, nothing else, for this variant: GGCCGGCAUGGUCCCAGCCUCCUCGCUGGCGCCGGCUGGGCAACAUUCCGAGGGGACCGUCCCCCCGGUAAUGGCGAAUGGAACCCA [U65C G82A]
A: 0.554

Q: Report self-cleavage, nothing else, for this variant: AGCCGGCAUGGUCCCAGCCUCCUCGCUGGCGCCGGCUGGGCAACAUCCCGAGGGGACCGUCCCCUCGGUAAUGGCGAAUGGGACCCA [G1A U47C]
A: 0.128

Q: Report self-cleavage, nothing else, for this variant: GCCCGGCAUGGUCCCAGCCUCCUCGCUGGCGCCGGCUGGGCAACAUUCCGAGGGGACCGUCCCCCCGGUAAUGGCGAAUGGGACCCA [G2C U65C]
A: 0.14

Q: Report self-cleavage, nothing else, for this variant: GGCCGGCAUAGUCCCAGCCUCCUCGCUGGCGCCGGCUGGGUAACAUUCCGAGGGGACCGUCCCCUCGGUAAUGGCGAAUGGGACCCA [G10A C41U]
A: 0.607

Q: Report self-cleavage, nothing else, for this variant: GGCCGGCAUGGUCCGAGCCUCCUCGCUGGCGCCGGCUGGGCAACAUUCCGAGGGGACCGUCCCCACGGUAAUGGCGAAUGGGACCCA [C15G U65A]
A: 0.831

Q: Report self-cleavage, nothing else, for this variant: GGCCGGCAUGGUCCCAGCCUCCUCGCUGGCGCUGGCUGGGUAACAUUCCGAGGGGACCGUCCCCUCGGUAAUGGCGAAUGGGACCCA [C33U C41U]
A: 0.646

Q: Report self-cleavage, nothing else, for this variant: GGCCGGCAUGGUCCCAGCCUCCUCGCUGGCGCCGGCUGGGCAACAUUCCGAGGGGACCGUCCCCUCGGUAAUGGAGAAUGGGAGCCA [C75A C84G]
A: 0.0707

Q: Report self-cleavage, nothing else, for this variant: GGCCGGCAUGGUCCCAGCCUCCUCACUGGCGCCGGCUGGGCAACAUUCCGAGGGGACCGUCCCCUCGGUAAUGCCGAAUGGGACCCA [G25A G74C]
A: 0.163

Q: Report self-cleavage, nothing else, for this variant: GGCCGGCAUGGUUCCAGCCUCCUCGCUGGCGCCGGCUGGGCAACAUUCCGAGGGGACCGUCCCCUCGGUAAUGGCGAAUGGGACCCU [C13U A87U]
A: 0.819

Q: Report self-cleavage, nothing else, for this variant: GGCCGGCAUGGUCCCAGCCUCCUCGCUGGAGCCGGCUGGGCAACAUUCCGAGGGGACCGUCCCCUCGGAAAUGGCGAAUGGGACCCA [C30A U69A]
A: 0.353

Q: Report self-cleavage, nothing else, for this variant: GGCCGGCAUGGUCCCAGCCUCCUCGCUGGCGCCGGCUGGGCAACAUUCCGAGGGGACCUUCCCCUCGGUAAUGGCGAAUGAGACCCA [G59U G81A]
A: 0.361

Q: Report self-cleavage, nothing else, for this variant: GGCCGGCAUGGUCCCAGCCUCCUCGCUGGCGCCAGCUGGGCAAAAUUCCGAGGGGACCGUCCCCUCGGUAAUGGCGAAUGGGACCCA [G34A C44A]
A: 0.089

Q: Report self-cleavage, nothing else, for this variant: GGCCGGCAUGGUCCCAGCCUCCUCGCUGGCGCCGGCUGGGCAACAUUCCGCGGGGACAGUCCCCUCGGUAAUGGCGAAUGGGACCCA [A51C C58A]
A: 0.779

Q: Report self-cleavage, nothing else, for this variant: GGCCGGCAUGGUCCCAGCCUCCUCGCUGGCGCCGGCUGGGCAACAUUCCGAGGGGACCGUCCCUUCGGUAAUGGCGAGUGGGACCCA [C64U A78G]
A: 0.813

Q: Report self-cleavage, nothing else, for this variant: GGCCGGCAUGGUCCCAGCCUCCUCGCUGGCGCCGGCUGGGCAACAUUCGGAGGGGACCGUCCCCUCGGUAAUGGCGAAUCGGACCCA [C49G G80C]
A: 0.178

Q: Report self-cleavage, nothing else, for this variant: GGCCGGCAUGGUCCCAGCCUCCUCGCUGGCACCGGCGGGGCAACAUUCCGAGGGGACCGUCCCCUCGGUAAUGGCGAAUGGGACCCA [G31A U37G]
A: 0.242

Q: Report self-cleavage, nothing else, for this variant: GGCCGGCAUGGUCCCAGCCUCCUCGCUGGCGCCGGCUGUGCAACAUUCCGAGCGGACCGUCCCCUCGGUAAUGGCGAAUGGGACCCA [G39U G53C]
A: 0.831

Q: Report self-cleavage, nothing else, for this variant: GGCCGGCAUGGUCCCAGCCUCCUCGCUGGCGCCGGCUGGGCCACAUUCCGAGGGGACCGUCCCCUCGGUAAUGGCGAAUGGUACCCA [A42C G82U]
A: 0.138

Q: Report self-cleavage, nothing else, for this variant: GGCCGGCAUGGUCCCAGCCUCCUCGCUGGCGCCGGCUGGGCAACAUUCCGAGGGGACCGUCCCCUCGGAAAUGGCGAAUGGGACCCC [U69A A87C]
A: 1.01

Q: Report self-cleavage, nothing else, for this variant: GGCCGGCAUGGUCCCAGCCUCCUCGCUGGCGCCGGCUGGGCAACAUUCCAAGCGGACCGUCCCCUCGGUAAUGGCGAAUGGGACCCA [G50A G53C]
A: 0.759

Q: Report self-cleavage, nothing else, for this variant: GGCCGGCAUGGUCCCAGCCUCCUCGCUGGCGCCGGCUGGGCAACAUUCCGAGGGGACCGUCCCCUCGGUAAUUGCUAAUGGGACCCA [G73U G76U]
A: 0.212

Q: Report self-cleavage, nothing else, for this variant: GGCCGGCAUGGUCCCAGCCUCCUCGCUGGCGCCGGCUGGGCAACAUUCCGAGGGGACAGUCCCCUCGGUAAUGGCGAAUGGGACACA [C58A C85A]
A: 0.877

Q: Report self-cleavage, nothing else, for this variant: GGCCGGUAUGGUCCCAGCCUCCUCGCUGGCGCCGGCUGGGCAACAUUCCGAGGGGACCGUCCCCUCGGUAAUGGCGAACGGGACCCA [C7U U79C]
A: 0.126
